Reported pIC50 values follow for various compounds
- Test system: HeLa
- test_name: Cytotoxicity against human HeLa cells after 72 hrs by SRB assay
- Assay type: functional, cell-based
pIC50: −log10 of the molar value.
property_label: pIC50

compound	obs_value
CCCNP(=O)(OC[C@H]1O[C@@H](n2cc(F)c(=O)[nH]c2=O)C[C@@H]1O)Oc1ccc(Cl)cc1 (some centres undefined)	4.30
CC(C)(C)OC(=O)O[C@H]1C[C@H](n2cc(F)c(=O)[nH]c2=O)O[C@@H]1COP(=O)(NCCCN=[N+]=[N-])Oc1ccc(Cl)cc1 (some centres undefined)	4.28
[N-]=[N+]=NCCCNP(=O)(OC[C@H]1O[C@@H](n2cc(F)c(=O)[nH]c2=O)C[C@@H]1O)Oc1ccc(Cl)cc1 (some centres undefined)	4.65
[N-]=[N+]=NCCCCNP(=O)(OC[C@H]1O[C@@H](n2cc(F)c(=O)[nH]c2=O)C[C@@H]1O)Oc1ccc(Cl)cc1 (some centres undefined)	4.14
CNP(=O)(OC[C@H]1O[C@@H](n2cc(F)c(=O)[nH]c2=O)C[C@@H]1O)Oc1ccc(Cl)cc1 (some centres undefined)	5.24
CNP(=O)(OC[C@H]1O[C@@H](n2cc(F)c(=O)[nH]c2=O)C[C@@H]1OC(=O)OC(C)(C)C)Oc1ccc(Cl)cc1 (some centres undefined)	5.14
CC(C)(C)OC(=O)O[C@H]1C[C@H](n2cc(F)c(=O)[nH]c2=O)O[C@@H]1COP(=O)(NCC(F)(F)F)Oc1ccc(Cl)cc1 (some centres undefined)	4.84
COC(=O)[C@H](C)NP(=O)(OC[C@H]1O[C@@H](n2cc(F)c(=O)[nH]c2=O)C[C@@H]1O)Oc1ccccc1 (some centres undefined)	4.63
O=c1[nH]c(=O)n([C@H]2C[C@H](O)[C@@H](COP(=O)(NCC(F)(F)F)Oc3ccc(Cl)cc3)O2)cc1F (some centres undefined)	5.51

----------
- System: 143B
- test_name: Selectivity index, ratio of IC50 for HDF cells to IC50 for human 143B cells
- Format: functional
property_label: Ratio IC50

compound	property_label	obs_value
CNP(=O)(OC[C@H]1O[C@@H](n2cc(F)c(=O)[nH]c2=O)C[C@@H]1O)Oc1ccc(Cl)cc1 (some centres undefined)	Ratio IC50	5.58
O=c1[nH]c(=O)n([C@H]2C[C@H](O)[C@@H](COP(=O)(NCC(F)(F)F)Oc3ccc(Cl)cc3)O2)cc1F (some centres undefined)	Ratio IC50	2.33
O=c1[nH]c(=O)n([C@H]2C[C@H](O)[C@@H](CO)O2)cc1F	Ratio IC50	2.17
Nc1ccn([C@@H]2O[C@H](CO)[C@@H](O)[C@@H]2O)c(=O)n1	Ratio IC50	2.42

----------
Reported IC50 values follow for various compounds
- Tested on: HepG2
- test_name: Cytotoxicity against human HepG2 cells after 72 hrs by SRB assay
- Type: functional, cell-based
- experimental_parameters: HepG2, 72 h

compound	relation_symbol	IC50 / µM
[N-]=[N+]=NCCCCNP(=O)(OC[C@H]1O[C@@H](n2cc(F)c(=O)[nH]c2=O)C[C@@H]1O)Oc1ccc(Cl)cc1 (some centres undefined)	>	100
Nc1ccn([C@@H]2O[C@H](CO)[C@@H](O)[C@@H]2O)c(=O)n1 [CYTARABINE]	=	2.86
COC(=O)[C@H](C)NP(=O)(OC[C@H]1O[C@@H](n2cc(F)c(=O)[nH]c2=O)C[C@@H]1OC(=O)OC(C)(C)C)Oc1ccc(Cl)cc1 (some centres undefined)	=	3.47
COC(=O)[C@H](C)NP(=O)(OC[C@H]1O[C@@H](n2cc(F)c(=O)[nH]c2=O)C[C@@H]1O)Oc1ccccc1 (some centres undefined)	=	25.9
